- System: 786-0 renal
- assay.notes: NCI-60 one-dose screen, 48 h (100 = growth as untreated, 0 = no growth, -100 = all killed)
- measurement.parameters: 10 µM
- Description: Cells are grown in 96 well plates and exposed to the test compound for 48 hours. Compounds are tested at a single concentration, which is 10^-5 M for most compounds. The reported endpoint is percent growth (GI% or GIPRCNT), where numbers from 0 - 100% represent growth inhibition, and numbers from -100% - 0 represent cell death. For example, a value of 40 represents 60% growth inhibition. A value of 0 means no net growth occurred over the course of the experiment. […]
Compounds without any hit were thinned out: in the full panel of roughly 83,000, 20% have a hit.
measurement.label: growth (%)
All answers are understood in %, so give the number only.

A selection of reference data follows.
In: Quick check: growth of `CN(C)CCOc1cccc(-c2nc3sccn3c2-c2ccnc(S(C)(=O)=O)n2)c1` ?
Out: 95.9

In: Quick check: growth of `O=C1c2c(c(=O)[nH]c3ccccc23)CCN1Cc1ccccc1` ?
Out: 99.8

In: Quick check: growth of `CC(=O)N[C@H](C(=O)N[C@@H](CCCNC(=N)N)C(=O)N[C@@H](CCCCN)C(=O)N[C@@H](CCCNC(=N)N)C(=O)N[C@]1(C)CCC/C=C\CCC[C@@](C)(C(=O)N[C@@H](CC(C)C)C(=O)N[C@@H](CC(C)C)C(=O)N[C@@H](CCC(N)=O)C(=O)N[C@@H](CCC(=O)O)C(=O)N[C@@H](CCCNC(=N)N)C(=O)N[C@@H](CCC(=O)O)C(=O)N[C@@H](CC(C)C)C(=O)N[C@H](C(=O)N[C@@H](CCC(=O)O)C(N)=O)C(C)C)NC(=O)[C@H](CCCNC(=N)N)NC(=O)[C@H](CC(C)C)NC1=O)C(C)C` ?
Out: 98.1

In: Quick check: growth of `CCOC(=O)c1cc(C(=O)c2ccc(OC)c(OC)c2)n2ccncc12` ?
Out: 106

In: Quick check: growth of `O=C1/C(=C/c2ccc3c(c2)OCO3)SC(=S)N1C1c2ccccc2Oc2ccccc21` ?
Out: 97.6

Further cases:
In: Quick check: growth of C#C[C@]1(O)CCC2C3CCc4cc(OC5CCCC5)ccc4C3CC[C@@]21C (some centres not stated) ?
Out: 73.5

In: Quick check: growth of `OCCn1cccn1` ?
Out: 109

###

- Test system: SN12C renal
- assay.notes: NCI-60 one-dose screen, 48 h (100 = growth as untreated, 0 = no growth, -100 = all killed)
- measurement.parameters: 10 µM
- Experimental: Growth inhibition of the SN12C human tumor cell line is measured as a screen for anti-cancer activity. Cells are grown in 96 well plates and exposed to the test compound for 48 hours. Compounds are tested at a single concentration, which is 10^-5 M for most compounds. The reported endpoint is percent growth (GI% or GIPRCNT), where numbers from 0 - 100% represent growth inhibition, and numbers from -100% - 0 represent cell death. For example, a value of 40 represents 60% growth inhibition. […]
This is part of a sample that, as a whole, favours compounds with a hit. Of some 83,000 tested, about 20% had one in any assay.
measurement.label: growth (%)
All answers are understood in %, so give the number only.

A selection of reference data follows.
In: Quick check: growth of `COc1cc(NC(=O)C2=C(N3CCOCC3)/C(=C/c3ccc(Cl)cc3)CC2)cc(OC)c1OC` ?
Out: 83.4

In: Quick check: growth of `CCOC(=O)c1cc(C(=O)c2ccc(Cl)cc2)n2ccc(-c3cc[n+](CC(=O)c4ccc(OC)cc4)cc3)cc12` ?
Out: 102

In: Quick check: growth of `CCCCCCCCCCOC(c1ccccc1)c1ccccc1` ?
Out: 102

In: Quick check: growth of `Cc1c(C(N)=O)sc2c1c(=O)n(Cc1ccccc1)c1nnc(-c3ccc(Br)cc3)n21` ?
Out: 32.8

In: Quick check: growth of `CC(=O)[C@H]1CC[C@]2(C)[C@@H]1CC[C@@H]1[C@@]3(C)CC(CCC#N)(CCC#N)C(=O)C(C)(C)[C@@H]3CC[C@]12C` ?
Out: 91.8

Further cases:
In: Quick check: growth of `NC(N)=N/N=C(\N=Nc1ccccc1)c1ccc(Cl)cc1` ?
Out: 76.3

In: Quick check: growth of `COc1ccc(-c2nn(-c3cccc(Cl)c3)cc2-c2cc(-c3ccccc3)nc(N)n2)cc1` ?
Out: 35.8

In: Quick check: growth of `NS(=O)(=O)c1ccc(N2N=C(c3ccccc3)CCC2=O)cc1` ?
Out: 101

In: Quick check: growth of `CC(C)(C)c1nn(-c2ccccc2)c2c1CC1(CN2Cc2ccc(Cl)cc2)C(=O)c2ccccc2C1=O` ?
Out: 86.1

In: Quick check: growth of `Nc1ccn(Cc2nnc(CCC(=O)c3nc4ccccc4[nH]3)o2)c(=O)n1` ?
Out: 87.1

In: Quick check: growth of `C=C/C(C)=C/C[C@]1(C)[C@H](C)[C@@H](OC(=O)CCC)[C@H](O)[C@@]23C(=C[C@H](OC)C[C@@H]12)[C@@H](OC(=O)CCC)O[C@H]3OC(C)=O` ?
Out: -51.9

In: Quick check: growth of `CC[C@@H]1NC(=O)[C@H]([C@H](O)[C@H](C)C/C=C/c2ccc(CN3C(=O)CCCC3=O)cc2)N(C)C(=O)[C@H](C(C)C)N(C)C(=O)[C@H](CC(C)C)N(C)C(=O)[C@H](CC(C)C)N(C)C(=O)[C@@H](C)NC(=O)[C@H](C)NC(=O)[C@H](CC(C)C)N(C)C(=O)[C@H](C(C)C)NC(=O)[C@H](CC(C)C)N(C)C(=O)CN(C)C1=O` ?
Out: 71.1

In: Quick check: growth of `CS(=O)(=O)c1nccc(-c2c(-c3ccc(OCCc4ccccc4)cc3)nc3sccn23)n1` ?
Out: 90.3

In: Quick check: growth of `COc1ccc(C(=O)CC(CC(=O)c2ccc(OC)cc2)c2c(C)nn(-c3ccccc3)c2Cl)cc1` ?
Out: 93.3

In: Quick check: growth of Cc1ccccc1N1C(=O)c2cc(S(N)(=O)=O)c(Cl)cc2NC1C (stereo not drawn) ?
Out: 108
